Molecular target: UniProt P00591
Sequence (P00591 1-450): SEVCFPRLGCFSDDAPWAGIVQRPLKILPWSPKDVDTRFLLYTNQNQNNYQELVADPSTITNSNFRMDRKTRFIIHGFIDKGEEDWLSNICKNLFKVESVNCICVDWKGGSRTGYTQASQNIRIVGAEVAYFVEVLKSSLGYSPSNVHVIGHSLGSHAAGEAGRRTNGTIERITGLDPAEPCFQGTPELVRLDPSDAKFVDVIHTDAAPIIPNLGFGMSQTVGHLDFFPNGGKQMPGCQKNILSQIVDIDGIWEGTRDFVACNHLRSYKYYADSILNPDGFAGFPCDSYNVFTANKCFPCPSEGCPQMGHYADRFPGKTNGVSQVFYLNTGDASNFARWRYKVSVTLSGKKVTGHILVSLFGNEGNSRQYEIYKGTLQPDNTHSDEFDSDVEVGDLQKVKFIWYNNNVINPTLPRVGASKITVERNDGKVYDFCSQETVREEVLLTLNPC
Assay: Fluorescence titration of lipase
Format: binding
Conditions: fluorescence titration, excitation 280 nm, Tris-HCl pH 8.0
Recorded endpoint: n (number of binding sites)
Enter the number alone.

### Prompt Complete the entry with n (number of binding sites) for C[C@@H]1O[C@@H](O[C@H]2C(=O)c3c(O)cc(O)cc3O[C@@H]2c2ccc(O)c(O)c2)[C@H](O)[C@H](O)[C@H]1O
### Response 0.850

### Prompt Complete the entry with n (number of binding sites) for O=c1cc(-c2ccc(O)c(O)c2)oc2cc(O)cc(O)c12
### Response 1.435

### Prompt Complete the entry with n (number of binding sites) for O=C1C[C@@H](c2ccc(O)cc2)Oc2cc(O)cc(O)c21
### Response 1.013

### Prompt Complete the entry with n (number of binding sites) for O=c1c(O)c(-c2ccc(O)c(O)c2)oc2cc(O)cc(O)c12
### Response 1.419

### Prompt Complete the entry with n (number of binding sites) for COc1ccc(-c2coc3cc(O[C@@H]4O[C@H](CO)[C@@H](O)[C@H](O)[C@H]4O)ccc3c2=O)cc1
### Response 1.086

### Prompt Complete the entry with n (number of binding sites) for O=c1c(-c2ccc(O)cc2)coc2c([C@@H]3O[C@H](CO)[C@@H](O)[C@H](O)[C@H]3O)c(O)ccc12
### Response 1.232

### Prompt Complete the entry with n (number of binding sites) for Oc1cc(O)c2c(c1)O[C@H](c1ccc(O)c(O)c1)[C@H](O)C2 [Epicatechin]
### Response 0.734

### Prompt Complete the entry with n (number of binding sites) for O=c1c(-c2ccc(O)cc2)coc2cc(O[C@@H]3O[C@H](CO)[C@@H](O)[C@H](O)[C@H]3O)ccc12
### Response 0.877

### Prompt Complete the entry with n (number of binding sites) for O=c1c(O)c(-c2ccccc2)oc2cc(O)cc(O)c12
### Response 1.097

### Prompt Complete the entry with n (number of binding sites) for O=c1cc(-c2ccccc2)oc2cc(O)cc(O)c12
### Response 0.964

### Prompt Complete the entry with n (number of binding sites) for O=c1cc(-c2ccc(O)c(O)c2)oc2cc(O)c([C@@H]3O[C@H](CO)[C@@H](O)[C@H](O)[C@H]3O)c(O)c12
### Response 1.278

### Prompt Complete the entry with n (number of binding sites) for Oc1cc(O)c2c(c1)O[C@H](c1cc(O)c(O)c(O)c1)[C@H](O)C2 [Epigallocatechin]
### Response 0.670

### Prompt Complete the entry with n (number of binding sites) for O=c1c(O)c(-c2ccc(O)cc2)oc2cc(O)cc(O)c12
### Response 1.163

### Prompt Complete the entry with n (number of binding sites) for C[C@@H]1O[C@@H](OC[C@H]2O[C@@H](Oc3c(-c4ccc(O)c(O)c4)oc4cc(O)cc(O)c4c3=O)[C@H](O)[C@@H](O)[C@@H]2O)[C@H](O)[C@H](O)[C@H]1O
### Response 1.115

### Prompt Complete the entry with n (number of binding sites) for O=c1cc(-c2ccc(O)cc2)oc2cc(O)cc(O)c12
### Response 1.156

### Prompt Complete the entry with n (number of binding sites) for O=C1c2c(O)cc(O)cc2O[C@H](c2cc(O)c(O)c(O)c2)[C@H]1O [Dihydromyricetin]
### Response 0.911
